system: Amaranthus retroflexus (AMARE); experiment: B1a pre-emergence herbicidal activity; type: in vivo; conditions: Rate 1000 g/ha; evaluated after 13 days; also: key: 5=total damage to plant; 0=no damage to plant
endpoint_label: Control of AMARE after pre-emergence application (damage score 0-5)
Form field (numeric): enter value without unit.

- molecule_smiles: "Cc1nn(-c2cncnc2)cc1N(C)C(=O)Nc1c(C)noc1C"
  tested_target: "Amaranthus retroflexus (AMARE)"
  observed_result: 0
- molecule_smiles: "CC(C)(C)OC(=O)Nc1cn(-c2cccnc2)nc1Cl"
  tested_target: "Amaranthus retroflexus (AMARE)"
  observed_result: 0

Give Control of AMARE after pre-emergence application (damage score 0-5) (Amaranthus retroflexus (AMARE)) of the following compound: CC(C)OC(=O)Nc1cc(-c2cncnc2)nn1C(F)F
0

Please tell me: Control of AMARE after pre-emergence application (damage score 0-5) of CCOC(=O)C(=O)N(C)c1cn(-c2cncnc2)nc1C(F)(F)F , system Amaranthus retroflexus (AMARE)?
0

Control of AMARE after pre-emergence application (damage score 0-5) of CN(C(=O)OC(C)(C)C)c1cn(-c2cccnc2)nc1Cl on Amaranthus retroflexus (AMARE)?
1

// map CC(C)OC(=O)N(C)c1cc(-c2cncnc2)nn1C(F)F to recorded Control of AMARE after pre-emergence application (damage score 0-5) (system: Amaranthus retroflexus (AMARE))
0

FYI, the data here is from patent US10905123B2.
